Consider the following compounds; for each one, report its GI50.
tested on: PC-3 prostate; experiment: NCI tumour cell line growth inhibition, 48 h

CCCCCC(=O)N1c2ccccc2NC2=C(C(=O)CC(c3ccc(OC)c(OC)c3)C2)C1c1ccc(C(F)(F)F)cc1 (stereo not drawn); 6.25 µM

List reported GI50 for each of these compounds:
1. O=C(O)C(/C=C/c1ccco1)=N\Nc1nc(-c2ccc(Cl)cc2)cs1
2. OCCN(CO)CN(CN(CO)CCO)c1nc(N(CN(CO)CCO)CN(CO)CCO)nc(N(CN(CO)CCO)CN(CO)CCO)n1
3. Cc1c(C(=O)/C=C/c2ccc(O)cc2)nnn1-c1ccnc2c(C(F)(F)F)cccc12
4. O=C(CNC(=O)c1cccc2ccccc12)Nc1ccccc1Oc1cccc(O)c1
5. COc1cc2c(cc1OCCCCCOc1cc(-c3ccc(F)cc3)nc(C)n1)N=C[C@@H]1CCCN1C2=O
6. CCN(CC)c1ccc(/C=N/NC(=O)c2ccc(Nc3ccnc(C(F)(F)F)c3)cc2)c(O)c1

17.3 µM
1.48 ng/mL
7.88 µM
7.13 µM
> 33.3 µM
0.434 µM

// returns reported GI50 for input O=C1N=C2c3c(sc4c3CCCC4)N=CN2C1N=Nc1ccc(Cl)cc1 (stereo not drawn) 13 µM
